- Tested on: S. aureus ΔNorA
- procedure details: Antibacterial MIC assay, serial dilution
- Format: cell-based, Staphylococcus aureus
- measurement setup: CC50 Vero cells / MIC
// values below are reported Selectivity index (CC50/MIC) S. aureus ΔNorA

// solved cases for Selectivity index (CC50/MIC) S. aureus ΔNorA follow
CN(CC[C@H](N)CC(=O)N[C@H]1C=C[C@H](n2ccc(NC(=O)c3ccc(NC(=O)[C@@](C)(N)CO)cc3)nc2=O)O[C@@H]1C(=O)NCCc1ccccc1)C(=N)N ... >16
CN(CC[C@H](N)CC(=O)N[C@H]1C=C[C@H](n2ccc(NC(=O)c3ccc(N)cc3)nc2=O)O[C@@H]1C(=O)NCCc1ccccc1)C(=N)N [Blastimidine P2] ... >32
CNc1ccc(C(=O)Nc2ccn([C@H]3C=C[C@H](NC(=O)C[C@@H](N)CCN(C)C(=N)N)[C@@H](C(=O)NCCc4ccccc4)O3)c(=O)n2)cc1 ... >48
CNc1ccc(C(=O)Nc2ccn([C@H]3C=C[C@H](NC(=O)C[C@@H](N)CCN(C)C(=N)N)[C@@H](C(=O)OC)O3)c(=O)n2)cc1 ... 26

For the compound CN(CC[C@H](N)CC(=O)N[C@H]1C=C[C@H](n2ccc(N)nc2=O)O[C@@H]1C(=O)O)C(=N)N , the measured Selectivity index (CC50/MIC) S. aureus ΔNorA on S. aureus ΔNorA was <0.1

For the compound CC(=O)Nc1ccc(C(=O)Nc2ccn([C@H]3C=C[C@H](NC(=O)C[C@@H](N)CCN(C)C(=N)N)[C@@H](C(N)=O)O3)c(=O)n2)cc1 , the measured Selectivity index (CC50/MIC) S. aureus ΔNorA on S. aureus ΔNorA was 1.1
